# System: Hela
# Protocol description: Antiproliferative activity (MTS assay), Hela
# Format: cell-based
# Applied conditions: Homo sapiens, HeLa, 96 h, Hela cells
Some compounds, each annotated with its measured IC50.

Cc1sc(NC(=O)c2ccncc2)nc1-c1ccccc1 ... > 10 µM
COc1cc(-c2csc(NC(=O)c3ccoc3)n2)ccc1O ... > 10 µM
Cc1cc(C)c(-c2csc(NC(=O)/C=C/c3cccnc3)n2)c(C)c1 ... > 10 µM
COc1cc(C)c(-c2csc(NC(=O)Nc3ccncc3)n2)c(C)c1 ... > 10 µM
Cc1cc(S(C)(=O)=O)cc(C)c1-c1csc(NC(=O)c2ccncc2)n1 ... 0.84 µM
COc1cc(C(=O)Nc2nc(-c3c(C)cc(C)cc3C)cs2)cc(Cl)n1 ... > 10 µM
Cc1sc(NC(=O)c2ccccn2)nc1-c1ccccc1 ... > 10 µM
COc1cc(C)c(-c2csc(NC(=O)c3cc[n+]([O-])cc3)n2)c(C)c1 ... 2.7 µM
COc1cc(-c2csc(NC(=O)c3ccccn3)n2)cc(OC)c1OC ... > 10 µM
O=C(Nc1nc(-c2ccc(O)cc2)cs1)c1cccnc1 ... > 10 µM

Query (compound): Cc1cc(OCC(O)CO)cc(C)c1-c1csc(NC(=O)c2ccncc2)n1 (stereo not shown) ; field requested: IC50 3.26 µM

What do we get for CC(=O)Nc1cc(C(=O)Nc2nc(-c3c(C)cc(C)cc3C)cs2)ccn1 ? > 10 µM

Item: Cc1ccc(-c2csc(NC(=O)c3cccnc3)n2)cc1 > 10 µM

Try Cc1cc(C)c(-c2csc(NC(=O)c3ccc4cn[nH]c4c3)n2)c(C)c1 next. > 10 µM

Check Cc1cc(I)cc(C)c1-c1csc(NC(=O)c2ccncc2)n1 too. 0.4 µM

Let us now turn to COc1cc(-c2csc(NC(=O)c3ccncc3)n2)ccc1O > 10 µM

Please give the result for COc1cc(-c2csc(NC(=O)c3ccncn3)n2)ccc1O too. > 10 µM

Would you kindly repeat that for Cc1ccc(-c2nc(NC(=O)c3ccc(C#N)cc3)sc2C)cc1 ? > 10 µM

Please give the result for Cc1cc(Cl)cc(C)c1-c1csc(NC(=O)c2ccncc2)n1 too. 0.73 µM

Next entry: COc1cc(-c2csc(NC(=O)c3cccnc3)n2)cc(OC)c1OC > 10 µM

====

# Protocol description: Pharmacokinetics in rats after i.v. injection
# Assay type: in vivo, SD rat
# Applied conditions: Sprague-Dawley, rat, serum, iv, 2 mg/kg, compound 42 i.v., formulation and route otherwise identical to compound 82, SD rat; Mean
Test readout: half-life (h)
Please respond with the number in h and leave the unit unwritten.

# get_value(readout='half-life', item= COc1cc(C)c(-c2csc(NC(=O)c3ccncc3)n2)c(C)c1 ) 1.52

====

# Tested on: K562
# Protocol description: Antiproliferative activity (MTS assay), K562
# Format: cell-based
# Applied conditions: K562 cells, 96 hours
Test readout: IC50 (nM)
I only need the number, in nM, no unit after it.

State the recorded IC50 for this entry: Cc1cc(C)c(-c2csc(NC(=O)c3ccnc(Cl)c3)n2)c(C)c1 790

====

# Protocol description: Combination of Hec1 inhibitors with chemotherapeutic inhibitors
# Applied conditions: preliminary data
Test readout: effect in combination of Hec1 inhibitors with chemotherapeutic inhibitors

CC[C@]1(O)C[C@H]2CN(CCc3c([nH]c4ccccc34)[C@@](C(=O)OC)(c3cc4c(cc3OC)N(C=O)[C@H]3[C@@](O)(C(=O)OC)[C@H](OC(C)=O)[C@]5(CC)C=CCN6CC[C@]43[C@@H]65)C2)C1 [vincristine] ... synergistic effect
CC(=O)O[C@H]1C(=O)[C@@]2(C)[C@H]([C@H](OC(=O)c3ccccc3)[C@]3(O)C[C@H](OC(=O)[C@H](O)[C@@H](NC(=O)c4ccccc4)c4ccccc4)C(C)=C1C3(C)C)[C@]1(OC(C)=O)CO[C@@H]1C[C@@H]2O [Taxol] ... synergistic effect
CC[C@]1(O)C[C@@H]2CN(CCc3c([nH]c4ccccc34)[C@@](C(=O)OC)(c3cc4c(cc3OC)N(C)[C@H]3[C@@](O)(C(=O)OC)[C@H](OC(C)=O)[C@]5(CC)C=CCN6CC[C@]43[C@@H]65)C2)C1 [vinblastine] ... synergistic effect
